test system: Pichia kudriavzevii; assay: Antifungal activity against Candida krusei ATCC 6258 after 48 hrs by broth dilution method; format: functional; conditions: Pichia kudriavzevii, ATCC 6258, 48 h
metric: MIC (µM)
Numbers only here, please. The scale is µM.

Reported MIC for CCCCCCCCCCN1CCNCC1 was 34.5

Summary for this compound, CCCCCCCCCCCN1CCNCC1 : MIC is 32.4

So, CCCCCCCCCCN1CCN(CC(O)(Cn2cncn2)c2ccc(Cl)cc2Cl)CC1 (stereo not given) ? Its MIC was 3.9

Kindly note the recorded MIC for CCCCCCCCCCCCN1CCNCC1 , which is 7.7

Summary for this compound, CN1CCN(CC(O)(Cn2cncn2)c2ccc(F)cc2F)CC1 (stereo not given) : MIC is 46.2

Others:
Form field MIC, entry CCCCCCCCCCCN1CCN(CC(O)(Cn2cncn2)c2ccc(F)cc2F)CC1 (stereo not given) : 4.1

response.value for CCCCCCCCCCCCCCN1CCNCC1 (field: MIC) = 3.5

The measured MIC associated with CCCCCCCCCN1CCNCC1 reads 147

Lookup result for CCCCCCCCCCCCCCN1CCN(CC(O)(Cn2cncn2)c2ccc(F)cc2F)CC1 (stereo not given) ; measured MIC: 1.9

Notebook: CCCCCCCCCN1CCN(CC(O)(Cn2cncn2)c2ccc(F)cc2F)CC1 (stereo not given) , MIC read as 2.2

The reported value for CCCCCCCCN1CCN(CC(O)(Cn2cncn2)c2ccc(F)cc2F)CC1 (stereo not given) in terms of MIC is 17.9

response.value for CCCCCCCCCCCCCN1CCNCC1 (field: MIC) = 3.6

The compound listed as CCCCCCCCCCN1CCN(CC(O)(Cn2cncn2)c2ccc(F)cc2F)CC1 (stereo not given) shows MIC equal to 4.2

Ref: ChEMBL document CHEMBL4024783
